Measured values drawn from ChEMBL document CHEMBL5505985 for this set.

molecular target: Prostaglandin G/H synthase 2 (Homo sapiens); experiment: Inhibition of human recombinant COX-2 using arachidonic acid as substrate pretreated for 5 mins followed by substrate addition and measured after 2 mins by fluorescence based analysis
Sequence (P35354 whole entry): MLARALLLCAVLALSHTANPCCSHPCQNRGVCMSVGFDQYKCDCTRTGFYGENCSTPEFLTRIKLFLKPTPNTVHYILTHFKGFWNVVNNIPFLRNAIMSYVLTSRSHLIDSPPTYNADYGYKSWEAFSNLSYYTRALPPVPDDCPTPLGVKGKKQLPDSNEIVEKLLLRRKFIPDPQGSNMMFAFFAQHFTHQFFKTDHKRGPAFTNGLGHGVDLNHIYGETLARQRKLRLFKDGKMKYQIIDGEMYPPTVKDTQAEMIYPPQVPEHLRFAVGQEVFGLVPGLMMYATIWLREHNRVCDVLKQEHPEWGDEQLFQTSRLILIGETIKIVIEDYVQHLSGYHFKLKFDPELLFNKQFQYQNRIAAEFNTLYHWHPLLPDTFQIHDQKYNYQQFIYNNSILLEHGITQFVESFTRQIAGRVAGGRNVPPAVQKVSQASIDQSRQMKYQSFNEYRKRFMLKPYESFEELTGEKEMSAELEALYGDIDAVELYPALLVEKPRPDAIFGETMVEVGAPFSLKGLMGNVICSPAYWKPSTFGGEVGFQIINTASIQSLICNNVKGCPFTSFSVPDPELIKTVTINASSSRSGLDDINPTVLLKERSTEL
VALUE TYPE: IC50 (nM)

- CHEMICAL STRUCTURE: "COc1ccccc1C1=Nn2c(Cc3ccccc3Nc3c(Cl)cccc3Cl)nnc2SC1"
  MEASURED: 1530
